Target: human CD33 Y50A (human, UniProt P20138 18-364)
Sequence (P20138 18-364 Y50A limits assumed): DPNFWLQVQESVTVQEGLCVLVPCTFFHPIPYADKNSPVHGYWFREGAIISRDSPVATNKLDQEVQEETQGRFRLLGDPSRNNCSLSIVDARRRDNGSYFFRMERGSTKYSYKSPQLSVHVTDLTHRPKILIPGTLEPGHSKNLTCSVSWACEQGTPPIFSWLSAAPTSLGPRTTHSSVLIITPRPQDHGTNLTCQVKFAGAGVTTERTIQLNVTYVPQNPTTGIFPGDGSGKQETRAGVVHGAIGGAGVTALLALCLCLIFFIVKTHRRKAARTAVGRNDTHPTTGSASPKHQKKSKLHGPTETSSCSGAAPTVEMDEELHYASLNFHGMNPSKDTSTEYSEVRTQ
Assay: alanine scan, flow cytometry;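 further: HEK293-T cells transiently expressing single-residue alanine mutants of CD33 (alanine swapped to serine), antibody binding read by fluorescence in duplicate, background-subtracted, expressed relative to wild-type CD33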
reported.metric: Mean % WT Binding (% WT)

# binder, result.number
records = [
    ("Refmab #1 (antibody, V domains shown, Full-length format is human IgG1 (Absolute Antibody Ab00283-10.0); The alanine scan used IgG or Fab; also called hP67.6) VH: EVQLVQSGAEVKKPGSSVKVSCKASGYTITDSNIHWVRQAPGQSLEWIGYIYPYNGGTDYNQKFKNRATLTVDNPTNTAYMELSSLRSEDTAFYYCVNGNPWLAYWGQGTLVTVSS VL: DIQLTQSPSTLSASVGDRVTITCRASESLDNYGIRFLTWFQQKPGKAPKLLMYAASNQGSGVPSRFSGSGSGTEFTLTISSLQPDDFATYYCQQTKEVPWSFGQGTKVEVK", 86),
    ("Refmab #3 (antibody, V domains shown, Full-length format is human IgG1 Fc silent (PG-LALA); The alanine scan used IgG or Fab) VH: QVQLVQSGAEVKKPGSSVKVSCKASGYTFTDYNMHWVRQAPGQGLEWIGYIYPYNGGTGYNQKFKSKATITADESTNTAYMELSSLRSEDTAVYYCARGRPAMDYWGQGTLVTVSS VL: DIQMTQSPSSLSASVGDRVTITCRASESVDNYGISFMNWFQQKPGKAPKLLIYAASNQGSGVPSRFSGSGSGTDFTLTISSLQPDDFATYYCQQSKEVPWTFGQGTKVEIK", 109),
    ("Refmab #4 (antibody, V domains shown, Full-length format is human IgG1 Fc silent (PG-LALA); The alanine scan used IgG or Fab) VH: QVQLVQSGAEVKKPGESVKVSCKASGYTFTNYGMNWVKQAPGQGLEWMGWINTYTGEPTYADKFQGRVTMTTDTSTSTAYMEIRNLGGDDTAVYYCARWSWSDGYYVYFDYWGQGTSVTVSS VL: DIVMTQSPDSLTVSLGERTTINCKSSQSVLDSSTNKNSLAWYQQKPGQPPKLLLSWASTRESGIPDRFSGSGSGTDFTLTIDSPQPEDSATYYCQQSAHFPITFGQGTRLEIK", 3.5),
    ("Refmab #2 (antibody, V domains shown, Full-length format is human IgG1 Fc silent (PG-LALA); The alanine scan used IgG or Fab) VH: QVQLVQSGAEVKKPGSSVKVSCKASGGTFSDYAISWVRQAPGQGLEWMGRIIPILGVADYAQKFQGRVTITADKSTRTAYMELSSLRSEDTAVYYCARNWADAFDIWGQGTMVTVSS VL: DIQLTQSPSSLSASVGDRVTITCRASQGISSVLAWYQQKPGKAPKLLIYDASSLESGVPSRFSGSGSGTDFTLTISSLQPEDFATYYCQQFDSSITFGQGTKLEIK", 141),
]
